Please respond with reported inhibition for every item in the list.
# procedure.summary: inhibition of PrP 5' UTR reporter expression (AID 488862); note: 0 = median of the neutral control wells
# condition.parameters: cell-based PrP 5' UTR mRNA reporter, plate reader; hits give high values; concentration not given here
Hit rate of the full screen: of about 340,000 compounds, about 1,200 (0.35%) were called active. What follows is part of a selection rich in actives, with near analogues and random picks from the rest.

molecule	result
CCCCSCCCNC(=O)C1CCC(CNS(=O)(=O)c2ccc(NC(C)=O)cc2)CC1 (stereo not drawn)	-21.5% (inactive)
CCCCN(C(=O)CCNC(=O)NC12CC3CC(CC(C3)C1)C2)c1c(N)n(CCCC)c(=O)[nH]c1=O	9.19% (inactive)
NC(=O)c1ccc(NC(=O)COC(=O)c2ccc([N+](=O)[O-])cc2)cc1	61.8% (active)

For each of the molecules below, note its inhibition.
1. COc1ccc(Cl)cc1NC(=O)[C@@H]1CCCN1C(=O)c1cccs1
2. CCOc1ccc(C(=O)CCC(=O)NC2=NCCS2)cc1
3. O=C(O)CCCCCNc1ncnc2ccc(Br)cc12

**Result**
1. -9.55% (inactive)
2. -27.4% (inactive)
3. 6.38% (inactive)

For each of the molecules below, note its inhibition.
1. OCC1(Cc2ccccc2)CCN(Cc2cc3ccccc3o2)CC1
2. O=C(c1cc2ccccc2o1)N1CCN(Cc2ccccc2)CC1
3. O=S(=O)(Nc1ccc2nc(N3CCOCC3)sc2c1)c1ccccc1
4. CCc1cc2c(N3CCN(c4nnc(CC)s4)CC3)ncnc2s1
5. CN(C)CCN(C(=O)C1CCCCC1)c1nc2cc3c(cc2s1)OCO3
6. Cc1ccc2nc(-c3ccc(Br)cc3)cn2c1
7. Cc1nn2cc(-c3ccc(Cl)cc3)cnc2c1Br
8. O=C(CN1C(=O)c2ccccc2S1(=O)=O)N1CCc2ccccc21

**Result**
1. 74.7% (active)
2. -15% (inactive)
3. -104% (inactive)
4. 2.26% (inactive)
5. -8.29% (inactive)
6. 71% (active)
7. -42% (inactive)
8. 62.6% (active)

For each of the molecules below, note its inhibition.
1. COC(=O)c1cc(S(=O)(=O)NC2CCN(Cc3ccccc3)CC2)cn1C
2. NC(=O)c1oc2ccccc2c1NC(=O)CS(=O)(=O)c1ccccc1
3. COc1ccc(-n2c(Cc3cccn3C)nnc2SCC(=O)Nc2cc(C)cc(C)c2)cc1
4. CC(=O)Nc1ccc(NC(=O)CSc2nnc(COc3ccccc3C)n2CC2CCCO2)cc1 (stereo not drawn)
5. COc1ccc(Nc2ncnc3ccc(Br)cc23)c(OC)c1
6. Cc1ccc(-n2c(-c3ccc(Cl)cc3)n[nH]c2=S)cc1

**Result**
-8.61% (inactive)
10.2% (inactive)
6.37% (inactive)
-3.51% (inactive)
72.3% (active)
-0.525% (inactive)

====

Please respond with reported inhibition for every item in the list.
# procedure.summary: inhibition of PrP 5' UTR reporter expression (AID 488862); note: 0 = median of the neutral control wells
# condition.parameters: cell-based PrP 5' UTR mRNA reporter, plate reader; hits give high values; concentration not given here
Out of some 340,000 compounds screened, about 1,200 (0.35%) were called active. The list comes from a sample in which actives are over-represented; it also holds close analogues and randomly drawn compounds.
Answers are plain numbers, in %.

Take a look at these entries with their results.
compound	inhibition, %
COc1ccc(/C=C/c2noc(-c3ccccc3OC(C)=O)n2)cc1	-28.8
COC(=O)C1C(=O)c2c([nH]c(C(=O)OCCSC)c2C)CC1C (stereo unspecified)	-51.7
CC(C)CN1CC(C)C(=O)N(c2ccccc2)C1=S (stereo unspecified)	-12.4
O=C(C(=O)N1CCc2ccccc2C1)c1c[nH]c2ccccc12	-13.2
Cc1nc2c(-c3ccc(F)cc3)c(C)nn2c(C)c1CCC(=O)N1CCN(c2ccccn2)CC1	4.39

For each of the compounds below, note its inhibition.
1. COc1ccc(OC)c(-c2csc(-c3cccs3)n2)c1
2. CCOC(=O)C1=C(N)N(c2ccc(C)cc2)C2=C(C(=O)CCC2)C1c1cccs1 (stereo unspecified)

**Result**
1: 4.49; 2: -23.6

For each of the compounds below, note its inhibition.
1. COc1ccc(-c2nc(-c3ccccc3)no2)c(OC)c1
2. O=C1C(=O)N(c2ccccc2)C(c2ccccc2)C1c1ccccc1 (stereo unspecified)
3. CCCC(=O)n1nc(NCc2ccc(OC)cc2)nc1NCc1ccc(OC)cc1
4. Cc1nc(N=C(N)N)nc2c(C)cccc12

**Result**
1. 66.6
2. -4.98
3. -14.7
4. -22.8
